Experiment: Caco-2 cell transport experiment
Type: in vitro ADME
Conditions: human, apical to basolateral, 10 uM, 120 minutes
Method: Caco-2 cells, 77th passage; HBSS, Lot: G210713; ACN+IS (tolbutamide 200 ng/mL); Caco-2 was inoculated on polyethylene (PET) in a 96-well Falcon plate at 2×10^5 cells/cm^2 until a confluent cell monolayer was formed on day 21-28. […] Incubation was carried out at 37° C., 5% CO2, and 95% relative humidity for 120 minutes, and the permeability of the test compound from the A to B direction or the B to A direction was determined in duplicate. The efflux ratio of each compound was determined. […]
quantity_measured: Papp A→B at 120 min, 10 uM
Remember to quote the unit after the number.

# Papp A→B at 120 min, 10 uM of O=C(O)c1ccc2nc(CN3CCC(c4cccc(OCc5ccc(C6COC6)cc5F)n4)CC3)n(C[C@@H]3CCO3)c2c1 = 3.14 ×10⁻⁶ cm/s
